Assay: Caco-2 permeability
Type: in vitro ADME
Conditions: human, 10 μM of compound
quantityMeasured: efflux ratio at 10 μM
Keep it simple and answer with nothing but the number.

In: # lookup: efflux ratio at 10 μM of `COc1cccc2c(NCc3ccccc3)nc(NCc3ccccc3)nc12`
Out: 10.3

====

Assay: Thermodynamic solubility
Format: physicochemical
Details: FaSSIF-V2 buffer, thermodynamic from solid; In FaSSIF-V2, pH 6.5
quantityMeasured: solubility thermodynamic at 16 h (µM)
Report the value in µM with no unit label.

In: # lookup: solubility thermodynamic at 16 h of `COc1cccc2c(NCc3ccccc3)nc(NCc3ccccc3)nc12`
Out: 17

====

Test: Caco-2 permeability
Assay type: in vitro ADME
Settings: human, 10 μM of compound
quantityMeasured: Papp A→B at 10 μM (×10⁻⁶ cm/s)
Report the value in ×10⁻⁶ cm/s with no unit label.

In: # lookup: Papp A→B at 10 μM of `COc1cccc2c(NCc3ccccc3)nc(NCc3ccccc3)nc12`
Out: 0.03

====

Experiment: Human liver microsomal stability
Format: in vitro ADME
Conditions: Human liver microsomes, 1 μM of compound; read-out: In vitro intrinsic clearance, Clint
quantityMeasured: microsomal CLint at 1 μM (µL/min/mg)
Report the value in µL/min/mg with no unit label.

In: # lookup: microsomal CLint at 1 μM of `COc1cccc2c(NCc3ccccc3)nc(NCc3ccccc3)nc12`
Out: 11.8

====

Target: VPS4B (Homo sapiens, UniProt O75351)
Sequence (O75351 whole entry): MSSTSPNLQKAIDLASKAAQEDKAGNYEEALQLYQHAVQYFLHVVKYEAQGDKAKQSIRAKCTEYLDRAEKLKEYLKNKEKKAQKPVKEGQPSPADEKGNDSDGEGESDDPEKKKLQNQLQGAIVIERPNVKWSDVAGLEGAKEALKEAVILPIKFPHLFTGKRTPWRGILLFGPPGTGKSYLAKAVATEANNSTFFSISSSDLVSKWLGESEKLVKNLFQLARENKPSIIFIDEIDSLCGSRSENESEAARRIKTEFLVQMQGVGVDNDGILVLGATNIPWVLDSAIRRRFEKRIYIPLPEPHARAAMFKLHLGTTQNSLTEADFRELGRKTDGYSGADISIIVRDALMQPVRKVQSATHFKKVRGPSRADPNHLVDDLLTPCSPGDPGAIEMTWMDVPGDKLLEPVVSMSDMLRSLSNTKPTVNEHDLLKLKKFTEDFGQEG
Assay: VPS4B ATPase activity, EnzChek Phosphate assay
Type: biochemical
Set-up: His tag (pET28a vector-encoded) (N); made in house; host or cells: Escherichia coli BL21(DE3)
Conditions: screened at 5 µM; mean ± S.D., Supplemental Table 2
In this section, each of the molecules is paired with its reported VPS4B ATPase (% DMSO).
Report the value in % DMSO with no unit label.

Reference set, count: 4
O=[N+]([O-])c1cccc2c(NCc3ccccc3)nc(NCc3ccccc3)nc12 [Compound 5] :: 86.38
COc1cccc2c(NCc3ccc(S(N)(=O)=O)cc3)nc(Cl)nc12 [Compound 5-17] :: 86.08
COc1cccc2c(NCc3ccncc3)nc(NCc3ccncc3)nc12 [Compound 5-11] :: 82.46
COc1cccc2c(NCc3ccccc3)nc(NCc3nc4ccccc4s3)nc12 [Compound 5-105] :: 56.25

In: Can you look up VPS4B ATPase (% DMSO) on VPS4B (Homo sapiens, UniProt O75351) for COc1cccc2c(NCc3cccc(OC(F)(F)F)c3)nc(NCc3ccccc3)nc12.Cl [Compound 5-33-iv] ?
Out: 25.77

In: Also check COc1ccc2cccc(Nc3nc(NCc4ccccc4)c4cccc(OC)c4n3)c2c1 [Compound 5-119]
Out: 53.27

In: Also check COc1cccc2c(NCCc3ccc(S(N)(=O)=O)cc3)nc(-n3ccc4ccc(C(=O)O)cc43)nc12 [Compound 5-43-iv]
Out: 99.19

In: Also check COc1ccc(CNc2nc(NCc3ccccc3)c3cccc(OC)c3n2)cc1 [Compound 19]
Out: 29.98

In: Also check COc1cccc2c(NCCc3cccc(S(N)(=O)=O)c3)nc(NCCc3ccc(S(N)(=O)=O)cc3)nc12 [Compound 5-15-iv]
Out: 77.37

In: Also check COc1ncnc2c1ccn2-c1nc(NCCc2cccnc2)c2cccc(OC)c2n1 [Compound 5-65]
Out: 89.36

In: Also check COc1cccc2c(NCCc3ccccc3)nc(-n3ccc4cncnc43)nc12 [Compound 5-59]
Out: 97.54

In: Also check COc1cccc2c(NCc3ccccc3)nc(NCc3ccc(C)cc3)nc12 [Compound 18]
Out: 27.55

====

In this section, each of the compounds is paired with its reported VCP ATPase (% DMSO).
Biological target: recombinant human VCP (Rattus norvegicus, UniProt P46462)
Construct: His (N); host or cells: Escherichia coli BL21(DE3)
Sequence (P46462 2-806 limits assumed): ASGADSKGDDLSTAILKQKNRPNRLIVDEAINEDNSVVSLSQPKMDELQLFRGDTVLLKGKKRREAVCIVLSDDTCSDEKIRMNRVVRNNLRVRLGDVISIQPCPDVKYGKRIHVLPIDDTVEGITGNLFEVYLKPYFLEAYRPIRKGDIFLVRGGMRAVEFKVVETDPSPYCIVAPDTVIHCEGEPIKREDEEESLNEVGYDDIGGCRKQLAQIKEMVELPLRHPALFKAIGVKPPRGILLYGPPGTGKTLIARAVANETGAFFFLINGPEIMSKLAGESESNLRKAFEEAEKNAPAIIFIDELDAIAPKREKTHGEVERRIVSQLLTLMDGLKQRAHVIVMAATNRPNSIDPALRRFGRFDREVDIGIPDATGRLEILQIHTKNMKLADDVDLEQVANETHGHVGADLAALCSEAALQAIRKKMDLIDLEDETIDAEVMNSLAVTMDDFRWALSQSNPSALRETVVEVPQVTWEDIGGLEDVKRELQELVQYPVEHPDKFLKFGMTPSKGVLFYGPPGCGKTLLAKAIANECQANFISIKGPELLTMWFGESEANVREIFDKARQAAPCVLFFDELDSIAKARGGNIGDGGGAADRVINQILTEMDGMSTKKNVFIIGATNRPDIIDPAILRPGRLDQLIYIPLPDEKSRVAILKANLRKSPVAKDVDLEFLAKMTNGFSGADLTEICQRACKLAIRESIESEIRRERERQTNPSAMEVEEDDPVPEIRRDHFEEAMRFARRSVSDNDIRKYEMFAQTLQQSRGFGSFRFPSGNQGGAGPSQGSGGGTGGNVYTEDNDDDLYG
Assay: VCP ATPase activity, EnzChek Phosphate assay
Type: biochemical
Conditions: screened at 5 µM; mean ± S.D., Supplemental Table 2
Report the value in % DMSO with no unit label.

COc1cccc2c(NCc3ccccc3)nc(NCc3ccc(F)cc3)nc12 [Compound 5-151] :: 93.82

In: # lookup: VCP ATPase (% DMSO) of COc1ccc(CNc2nc(NCc3ccccc3)c3cccc(OC)c3n2)cc1 [Compound 19]
Out: 107.28

In: Also check COc1cccc2c(NCc3ccccc3)nc(NCc3cccc4ccccc34)nc12 [Compound 13]
Out: 98.67

In: Also check COc1cccc(CNc2nc(NCc3ccccc3)c3cccc(OC)c3n2)c1 [Compound 5-27-2]
Out: 100.03

====

In this section, each of the molecules is paired with its reported VPS4B ATPase (% DMSO).
Target: VPS4B (Homo sapiens, UniProt O75351)
Test: VPS4B ATPase activity, EnzChek Phosphate assay
Assay type: biochemical
Set-up: His tag (pET28a vector-encoded) (N); made in house; host or cells: Escherichia coli BL21(DE3)
Conditions: screened at 5 µM; mean ± S.D., Supplemental Table 2
Report the value in % DMSO with no unit label.

COc1cccc2c(NCc3ccccc3)nc(N[C@H](C)c3ccc4ccccc4c3)nc12 :: 42.87
COc1ncnc2c1ccn2-c1nc(NCc2ccc(C(F)(F)F)cc2)c2cccc(OC)c2n1 :: 93.98
COc1cccc2c(NCCc3ccccc3)nc(N[C@@H](C)c3ccccc3)nc12 :: 42.92

In: # lookup: VPS4B ATPase (% DMSO) of `COc1cccc2c(NCc3ccccc3)nc(-n3ccc4cc(C(=O)O)ccc43)nc12`
Out: 87.4

====

Biological target: UniProt O75351
Test: VPS4B ATPase activity, EnzChek Phosphate assay
Format: biochemical
Parameters: His tag (pET28a vector-encoded) (N); made in house; host or cells: Escherichia coli BL21(DE3)
Conditions: remaining ATPase activity; screened at 5 μM; mean ± SD, Table 1
Measured VPS4B ATPase (% DMSO) determines class: c1 = under 40 % DMSO, c2 = from 40 % DMSO up to 50 % DMSO, c3 = 50 % DMSO and over

Take a look at these entries with their results.
COc1cccc2c(NCc3ccccc3)nc(NCc3cccc(C(F)(F)F)c3)nc12 :: c1
COc1cccc2c(NCc3ccccc3)nc(NCc3ccc4ccccc4c3)nc12 :: c1
c1ccc(CNc2nc(NCc3ccccc3)c3ccccc3n2)cc1 :: c2
COc1cccc2c(NCc3ccccc3)nc(NCc3cccc(OC(F)(F)F)c3)nc12 :: c2
COc1ccc(CNc2nc(NCc3ccc(OC)cc3)c3cccc(OC)c3n2)cc1 :: c1

In: Bin this entry: `COc1cccc2c(NCc3ccccc3)nc(NCc3ccc(C)cc3)nc12`
Out: c1

In: Also check `COc1cccc2c(NCc3ccccc3)nc(NCc3ccccc3)nc12`
Out: c3

In: Also check `COC(=O)c1ccc2ccn(-c3nc(NCc4ccccc4)c4cccc(OC)c4n3)c2c1`
Out: c3

In: Also check `COc1cccc2c(NCc3ccc(F)cc3)nc(NCc3ccc(F)cc3)nc12`
Out: c2

In: Also check `COC(=O)c1cccc(CNc2nc(NCc3ccccc3)c3cccc(OC)c3n2)c1`
Out: c2

====

Biological target: VPS4B (Homo sapiens)
Experiment: VPS4B ATPase activity, EnzChek Phosphate assay
Type: biochemical
Set-up: His tag (pET28a vector-encoded) (N); made in house; host or cells: Escherichia coli BL21(DE3)
Conditions: screened at 5 µM; mean ± S.D., Supplemental Table 2
quantityMeasured: VPS4B ATPase (% DMSO)
Report the value in % DMSO with no unit label.

Reference set, count: 8
COC(=O)c1cccc(CNc2nc(NCc3ccccc3)c3cccc(OC)c3n2)c1 :: 42.10
COc1cccc2c(NCc3ccccc3)nc(-c3cccc4ccccc34)nc12 :: 49.12
COc1cccc2c(NCc3ccccc3)nc(Nc3cccc4cc5ccccc5cc34)nc12 :: 63.24
COc1cccc2c(NCc3ccccc3)nc(NCc3cccc(OC(F)(F)F)c3)nc12 :: 46.29
COc1cccc2c(NCc3ccccc3)nc(Nc3ccc4ccccc4c3)nc12.Cl :: 76.35
COc1cccc2c(NCc3ccccc3)nc(-n3ccc4c(C(=O)O)cccc43)nc12 :: 96.09
COc1ccc2nc(NCc3ccccc3)nc(NCc3ccccc3)c2c1 :: 43.86
COc1ccc(CNc2nc(NCc3ccc(OC)cc3)c3cccc(OC)c3n2)cc1 :: 33.98

In: Can you look up VPS4B ATPase (% DMSO) on VPS4B (Homo sapiens) for `COc1cccc2c(NCc3ccccc3)nc(NC(c3ccc(F)cc3)c3ccc(F)cc3)nc12` ?
Out: 39.86

In: Also check `COc1ncnc2c1ccn2-c1nc(NCc2ccccc2)c2cccc(OC)c2n1`
Out: 91.51

====

Target: VPS4B (Homo sapiens, UniProt O75351)
Assay: VPS4B ATPase activity, EnzChek Phosphate assay
Type: biochemical
Set-up: His tag (pET28a vector-encoded) (N); made in house; host or cells: Escherichia coli BL21(DE3)
Settings: screened at 5 µM; mean ± S.D., Supplemental Table 2
Measured VPS4B ATPase (% DMSO) determines class: label 0 (below 50 % DMSO), label 1 (50 % DMSO to below 80 % DMSO), label 2 (80 % DMSO or more)

COc1cccc2c(NCc3ccccc3)nc(NCc3ccccc3)nc12 :: label 0
COc1cccc2c(NCc3ccccc3)nc(N[C@H](C)c3cccc4ccccc34)nc12 :: label 0
COc1cccc2c(NCc3ccccc3)nc(N[C@@H](C)c3ccc4ccccc4c3)nc12 :: label 1
COc1cccc2c(NCc3ccccc3)nc(-n3ccc4ccc(C(=O)O)cc43)nc12 :: label 2
COc1cccc2c(NCc3cccc(C(=O)O)c3)nc(NCc3cccc(C(=O)O)c3)nc12 :: label 2

Next, consider the following compound.
In: Bin this entry: `NCc1ccccc1`
Out: label 1
